System: H9
Assay: Concentration required to inhibit viral replication in acutely infected H9 lymphocytes when tested for anti-HIV activity
Assay type: functional, cell-based
Conditions: Homo sapiens

- compound-structure-string: "Oc1nc(-c2ccc(F)cc2)nc2ccccc12"
  tested-target: "H9"
  EC50, µM: 9.18
- compound-structure-string: "COc1cc2nc(-c3ccc4ccccc4c3)nc(O)c2cc1OC"
  tested-target: "H9"
  EC50, µM: 7.59
- compound-structure-string: "COc1cc2nc(-c3ccccc3F)nc(O)c2cc1OC"
  tested-target: "H9"
  EC50, µM: 10.9
- compound-structure-string: "Oc1nc(-c2cccc(F)c2)nc2ccccc12"
  tested-target: "H9"
  EC50, µM: 9.53
